test: Selectivity index, ratio of CC50 for human MT4 cells to EC50 for reverse transcriptase Y181C mutant in human MT4 cells infected HIV1 3B; conditions: MT4 cells
Assign selectivity ratio to each entry below.
Reply with just the number.

response.value for Cc1cc(/C=C/C#N)cc(C)c1Oc1nc(NC2CCN(Cc3cccc(Br)c3)CC2)nc2ccsc12 (field: selectivity ratio) = 62

response.value for Cc1cc(/C=C/C#N)cc(C)c1Oc1nc(NC2CCN(Cc3cccc(F)c3)CC2)nc2ccsc12 (field: selectivity ratio) = 138

response.value for Cc1cc(/C=C/C#N)cc(C)c1Oc1nc(NC2CCN(Cc3ccc(C#N)cc3)CC2)nc2ccsc12 (field: selectivity ratio) = 86

response.value for Cc1cc(/C=C/C#N)cc(C)c1Oc1nc(NC2CCN(Cc3ccc(Br)cc3)CC2)nc2ccsc12 (field: selectivity ratio) = 53

response.value for Cc1cc(/C=C/C#N)cc(C)c1Oc1nc(NC2CCN(Cc3ccccc3Cl)CC2)nc2ccsc12 (field: selectivity ratio) = 37

response.value for Cc1cc(C#N)cc(C)c1Oc1nc(NC2CCN(Cc3ccc(S(C)(=O)=O)cc3)CC2)nc2sccc12 (field: selectivity ratio) = 200

response.value for Cc1cc(C#N)cc(C)c1Oc1nc(NC2CCN(Cc3ccc(S(N)(=O)=O)cc3)CC2C(=O)O)nc2ccsc12 (stereo not given) (field: selectivity ratio) = 8

response.value for Cc1cc(C#N)cc(C)c1Oc1nc(NC2CCN(Cc3ccc(C(N)=O)cc3)CC2)nc2sccc12 (field: selectivity ratio) = 20

response.value for Cc1cc(/C=C/C#N)cc(C)c1Oc1nc(NC2CCN(Cc3cccc(C#N)c3)CC2)nc2ccsc12 (field: selectivity ratio) = 105

response.value for Cc1cc(/C=C/C#N)cc(C)c1Oc1nc(NC2CCN(Cc3ccncc3)CC2)nc2ccsc12 (field: selectivity ratio) = 825

response.value for CCOC(=O)C1CN(Cc2ccc(S(N)(=O)=O)cc2)CCC1Nc1nc(Oc2c(C)cc(C#N)cc2C)c2sccc2n1 (stereo not given) (field: selectivity ratio) = 23

response.value for Cc1cc(/C=C/C#N)cc(C)c1Oc1nc(NC2CCN(Cc3ccccn3)CC2)nc2ccsc12 (field: selectivity ratio) = 418

response.value for Cc1cc(C#N)cc(C)c1Oc1nc(NC2CCN(Cc3ccc(S(N)(=O)=O)cc3)CC2)nc2sccc12 (field: selectivity ratio) = 3160

====

assay: Selectivity index, ratio of CC50 for human MT4 cells to EC50 for reverse transcriptase F227L/V106A double mutant in human MT4 cells infected HIV1 3B; conditions: MT4 cells
resultType: selectivity ratio
Reply with just the number.

response.value for Cc1cc(C#N)cc(C)c1Oc1nc(NC2CCN(Cc3ccc(S(C)(=O)=O)cc3)CC2)nc2sccc12 (field: selectivity ratio) = 137

response.value for Cc1cc(/C=C/C#N)cc(C)c1Oc1nc(NC2CCN(Cc3ccc([N+](=O)[O-])cc3)CC2)nc2ccsc12 (field: selectivity ratio) = 33

response.value for Cc1ccc(CN2CCC(Nc3nc(Oc4c(C)cc(/C=C/C#N)cc4C)c4sccc4n3)CC2)cc1 (field: selectivity ratio) = 22

response.value for Cc1cc(/C=C/C#N)cc(C)c1Oc1nc(NC2CCN(Cc3cccc(C#N)c3)CC2)nc2ccsc12 (field: selectivity ratio) = 107

response.value for Cc1ccccc1CN1CCC(Nc2nc(Oc3c(C)cc(/C=C/C#N)cc3C)c3sccc3n2)CC1 (field: selectivity ratio) = 46

response.value for Cc1cc(/C=C/C#N)cc(C)c1Oc1nc(NC2CCN(Cc3ccc(F)cc3)CC2)nc2ccsc12 (field: selectivity ratio) = 25

response.value for CCOC(=O)C1CN(Cc2ccc(S(N)(=O)=O)cc2)CCC1Nc1nc(Oc2c(C)cc(C#N)cc2C)c2sccc2n1 (stereo not drawn) (field: selectivity ratio) = 3

====

assay: AUC(0 to infinity) in Sprague-Dawley rat at 2 mg/kg, iv by LC-MS analysis; format: ADME, organism-based; set-up: dose 2 mg/kg, time infinity, route intravenous; conditions: in vivo
resultType: AUC(0-inf) (ng·h/mL)
The response must be a number in ng·h/mL with no trailing unit.

response.value for Cc1cc(/C=C/C#N)cc(C)c1Oc1nc(NC2CCN(Cc3ccc(S(N)(=O)=O)cc3)CC2)nc2ccsc12 (field: AUC(0-inf)) = 1390

====

assay: Selectivity index, ratio of CC50 for human MT4 cells to EC50 for reverse transcriptase K103N mutant in human MT4 cells infected HIV1 3B; conditions: MT4 cells
resultType: selectivity ratio
Reply with just the number.

response.value for Cc1cc(/C=C/C#N)cc(C)c1Oc1nc(NC2CCN(Cc3ccccn3)CC2)nc2ccsc12 (field: selectivity ratio) = 724

response.value for Cc1ccccc1CN1CCC(Nc2nc(Oc3c(C)cc(/C=C/C#N)cc3C)c3sccc3n2)CC1 (field: selectivity ratio) = 114

response.value for Cc1cc(/C=C/C#N)cc(C)c1Oc1nc(NC2CCN(Cc3cccc(Cl)c3)CC2)nc2ccsc12 (field: selectivity ratio) = 164

response.value for Cc1cc(C#N)cc(C)c1Oc1nc(NC2CCN(Cc3ccc(S(N)(=O)=O)cc3)CC2C(=O)O)nc2ccsc12 (stereo unspecified) (field: selectivity ratio) = 33

response.value for Cc1cc(C#N)cc(C)c1Oc1nc(NC2CCC(NCc3ccc(O)cc3)CC2)nc2ccsc12 (stereo unspecified) (field: selectivity ratio) = 4

====

assay: Selectivity index, ratio of CC50 for human MT4 cells to EC50 for reverse transcriptase Y181C mutant in human MT4 cells infected HIV1 3B; settings: MT4 cells
Assign selectivity ratio to each entry below.
Reply with just the number.

response.value for Cc1ccccc1CN1CCC(Nc2nc(Oc3c(C)cc(/C=C/C#N)cc3C)c3sccc3n2)CC1 (field: selectivity ratio) = 33

response.value for Cc1cc(/C=C/C#N)cc(C)c1Oc1nc(NC2CCN(Cc3ccccc3Br)CC2)nc2ccsc12 (field: selectivity ratio) = 45

response.value for Cc1cc(/C=C/C#N)cc(C)c1Oc1nc(NC2CCN(Cc3cccc(C(N)=O)c3)CC2)nc2ccsc12 (field: selectivity ratio) = 563

response.value for Cc1cc(/C=C/C#N)cc(C)c1Oc1nc(NC2CCN(Cc3ccc([N+](=O)[O-])cc3)CC2)nc2ccsc12 (field: selectivity ratio) = 115

response.value for Cc1ccc(CN2CCC(Nc3nc(Oc4c(C)cc(/C=C/C#N)cc4C)c4sccc4n3)CC2)cc1 (field: selectivity ratio) = 98

response.value for Cc1cc(/C=C/C#N)cc(C)c1Oc1nc(NC2CCN(Cc3ccc(Cl)cc3)CC2)nc2ccsc12 (field: selectivity ratio) = 51

response.value for Cc1cc(/C=C/C#N)cc(C)c1Oc1nc(NC2CCN(Cc3cccnc3)CC2)nc2ccsc12 (field: selectivity ratio) = 637

response.value for COC(=O)c1ccc(CN2CCC(Nc3nc(Oc4c(C)cc(C#N)cc4C)c4ccsc4n3)CC2)cc1 (field: selectivity ratio) = 316

response.value for Cc1cc(/C=C/C#N)cc(C)c1Oc1nc(NC2CCN(Cc3cccc(Cl)c3)CC2)nc2ccsc12 (field: selectivity ratio) = 69

response.value for Cc1cc(/C=C/C#N)cc(C)c1Oc1nc(NC2CCN(Cc3ccccc3C#N)CC2)nc2ccsc12 (field: selectivity ratio) = 66

response.value for Cc1cc(/C=C/C#N)cc(C)c1Oc1nc(NC2CCN(Cc3ccc(F)cc3)CC2)nc2ccsc12 (field: selectivity ratio) = 95

response.value for Cc1cc(C#N)cc(C)c1Oc1nc(NC2CCN(Cc3ccc(S(N)(=O)=O)cc3)CC2F)nc2ccsc12 (stereo not drawn) (field: selectivity ratio) = 171

response.value for Cc1cc(/C=C/C#N)cc(C)c1Oc1nc(NC2CCN(Cc3ccccc3F)CC2)nc2ccsc12 (field: selectivity ratio) = 83

====

Assign selectivity ratio to each entry below.
assay: Selectivity index, ratio of CC50 for human MT4 cells to EC50 for reverse transcriptase F227L/V106A double mutant in human MT4 cells infected HIV1 3B; details: MT4 cells
Reply with just the number.

response.value for Cc1cc(C#N)cc(C)c1Oc1nc(NC2CCC(NCc3ccccc3)CC2)nc2ccsc12 (stereo not drawn) (field: selectivity ratio) = 3

response.value for Cc1cc(C#N)cc(C)c1Oc1nc(NC2CCN(Cc3ccc(S(N)(=O)=O)cc3)CC2C(=O)O)nc2ccsc12 (stereo not drawn) (field: selectivity ratio) = 11

response.value for Cc1cc(/C=C/C#N)cc(C)c1Oc1nc(NC2CCN(Cc3ccc(Cl)cc3)CC2)nc2ccsc12 (field: selectivity ratio) = 37

response.value for Cc1cc(C#N)cc(C)c1Oc1nc(NC2CCC(NCc3ccc([N+](=O)[O-])cc3)CC2)nc2ccsc12 (stereo not drawn) (field: selectivity ratio) = 84

response.value for COC(=O)c1ccc(CN2CCC(Nc3nc(Oc4c(C)cc(C#N)cc4C)c4ccsc4n3)CC2)cc1 (field: selectivity ratio) = 109

====

Assign CC50 at 120 h to each entry below.
assay: Cytotoxicity against human MT4 cells assessed as cell viability after 5 days by MTT assay; assay type: cell-based
The response must be a number in µM with no trailing unit.

response.value for Cc1cc(/C=C/C#N)cc(C)c1Oc1nc(NC2CCN(Cc3ccccc3C#N)CC2)nc2ccsc12 (field: CC50 at 120 h) = 2.28

response.value for Cc1cc(C#N)cc(C)c1Oc1nc(NC2CCC(NCc3ccc(Br)cc3)CC2)nc2ccsc12 (stereo not given) (field: CC50 at 120 h) = 3.45
